B1: LINE1-full (parent)
chain: UACGUAGGUGGUUUUCCCCUGAUAGUGCUAAGGGGGCCUGGAAGUUUGGACUGGGCAGAGCUCAACACAGCGUGGCAAAGUGGCUGUGGCUAGACUGCCUCUCUGGAUUCCUCGUCACUCAGCAGGGCAUCUCUGAGAGAAAUGCC

Variants of: B1
Assay: self-cleavage, relative activity (ratio to wild type); higher = more cleavage; in vitro, sequencing; the parent is a self-cleaving ribozyme

[
  {
    "seq-text": "UACGUAGGUGGUUUUCCCCUGAUAGUGCUAAGGGGGCCCGGAAGUUUGGACUGGGCAGAGCUCAACACAGCGUGGCAAAGUGGCUGUGGCUAGACUGCCUCUCUGGAUUCCUCGUCACUCAGCAGGGCAUUUCUGAGAGAAAUGCC [U39C C131U]",
    "self-cleavage": 1
  },
  {
    "seq-text": "UACGUAGGUGGUUUUCCCCUGAUAGUGCUAAGGGGGCCUGGAAGUUUGGACUGGGCAGAGCUCGACACAGCGUGGCAAAGUGGCCGUGGCUAGACUGCCUCUCUGGAUUCCUCGUCACUCAGCAGGGCAUCUCUGAGAGAAAUGCC [A64G U85C]",
    "self-cleavage": 0.1
  },
  {
    "seq-text": "UACGUAGGUGGUUUUCCCCUGAUAGUGCUAAGGGGGCCUGGAAGUUUGGACUGGGCAGAGCUCAACACAGCAUGGCAAAGUGGCUGUGGCUAGACAGCCUCUCUGGAUUCCUCGUCACUCAGCAGGGCAUCUCUGAGAGAAAUGCC [G72A U96A]",
    "self-cleavage": 0.04
  },
  {
    "seq-text": "UACGUAGGUGGUUUUCCCCUGAUAGUGCUAAGGGGGCCUGGAUGUUUGGACUGGGCAGAGCUCAACACAGCGUGGCAAAGUGGCCGUGGCUAGACUGCCUCUCUGGAUUCCUCGUCACUCAGCAGGGCAUCUCUGAGAGAAAUGCC [A43U U85C]",
    "self-cleavage": 0.16
  },
  {
    "seq-text": "UACGUAGGUGGUUUUCCCCUGAUAGUGCUAAGGGGGCCUGGAAGUUUGGACUGGGCAGAGCUCUACACAGCGUGGCAAAGUGGCUGUGGCUAGACUGCCUCUCUGGAUUCCUUGUCACUCAGCAGGGCAUCUCUGAGAGAAAUGCC [A64U C113U]",
    "self-cleavage": 0.28
  },
  {
    "seq-text": "CACGUAGGUGGUUAUCCCCUGAUAGUGCUAAGGGGGCCUGGAAGUUUGGACUGGGCAGAGCUCAACACAGCGUGGCAAAGUGGCUGUGGCUAGACUGCCUCUCUGGAUUCCUCGUCACUCAGCAGGGCAUCUCUGAGAGAAAUGCC [U1C U14A]",
    "self-cleavage": 0.81
  },
  {
    "seq-text": "UACGUAGGUGGUUUUCCCCUGAUAGUGCCAAGGGGGCCCGGAAGUUUGGACUGGGCAGAGCUCAACACAGCGUGGCAAAGUGGCUGUGGCUAGACUGCCUCUCUGGAUUCCUCGUCACUCAGCAGGGCAUCUCUGAGAGAAAUGCC [U29C U39C]",
    "self-cleavage": 1.74
  },
  {
    "seq-text": "UACGUAGGUGGUUUUCCCCUGAUAGUGCUAAGGGGGCCGGGAAGUUUGGACUGGGCAGAGCUCAACACAGCGUGGCAAAGUGGCUGUGGCUAGACUGCCUCUAUGGAUUCCUCGUCACUCAGCAGGGCAUCUCUGAGAGAAAUGCC [U39G C103A]",
    "self-cleavage": 1.85
  },
  {
    "seq-text": "UACGUAGGUGGUUUUCCCCUGAUAGUGCUAAGGGGGCCUGGAAGUUUGGACUGGGCAGAGCUCAACACAGCGUGGCGAAGUGGCUGUGGCUAGACUGCCUCUCUGGAUUCCUAGUCACUCAGCAGGGCAUCUCUGAGAGAAAUGCC [A77G C113A]",
    "self-cleavage": 2.1
  },
  {
    "seq-text": "UACGUAGGUGGUUUUCCCCUGAUAGUGCUAAGGGGGCCUGGAAGUUUGGACUAGGCAGAGCUCAACACAGCGUGGCAAAGUGGCUGUGGCUAGACUGCCUCUCUGGAUUCCUCGUCACUCAGCAGGGCAUCUCUGAGAGAGAUGCC [G53A A141G]",
    "self-cleavage": 1.26
  },
  {
    "seq-text": "UACGUAGGUGGUUUUCCCCUAAUAGUGCUAAGGGGGCCUGGAAGUUUGGACUGGGCAGAGCUCAACACAGCGUGGCAAAGUAGCUGUGGCUAGACUGCCUCUCUGGAUUCCUCGUCACUCAGCAGGGCAUCUCUGAGAGAAAUGCC [G21A G82A]",
    "self-cleavage": 2
  },
  {
    "seq-text": "UACGUAGGUGGUUUUCCCCUGAUAGCGCUAAGGGGGCCUGGAUGUUUGGACUGGGCAGAGCUCAACACAGCGUGGCAAAGUGGCUGUGGCUAGACUGCCUCUCUGGAUUCCUCGUCACUCAGCAGGGCAUCUCUGAGAGAAAUGCC [U26C A43U]",
    "self-cleavage": 1.21
  },
  {
    "seq-text": "UACGUAGGUGGUUUUCCCCUGAUAGUGCUAAGGGGGCCUGGAAGUUCGGACUGGGCAGAGCUCAACACAGCGUGGCAAAGUGGCAGUGGCUAGACUGCCUCUCUGGAUUCCUCGUCACUCAGCAGGGCAUCUCUGAGAGAAAUGCC [U47C U85A]",
    "self-cleavage": 0.13
  },
  {
    "seq-text": "UACGUAGGUGGUUUUCCCCUGAUAGUGCUAAGGGGGCCUGGAAGUUUGGACUGGGCAGAGCUCAACACAGCGUGGCAAAGUGGCUGUGGCUAGACUGCCUCUCUGGAUUCCUCGUCACUCAGCAGGGCAUCCCUGAGAGAAAUACC [U132C G144A]",
    "self-cleavage": 1.86
  },
  {
    "seq-text": "UACGUAGGUGGUUUUCCCCUGAUAGUGCUAAGGGGGCCUGGAAGUUUGGACUGGGCAGAGCUCAACACAGCGUGGCAAAGUGGCUGUGGCUAGACUGCCUCUCUGGAUUCCUCGUCACUCAGCAGGGCGUCUCUGAGUGAAAUGCC [A129G A138U]",
    "self-cleavage": 2.12
  },
  {
    "seq-text": "UACGUAGGUGGUUUCCCCCUGAUAGUGCUAAGGGGGCCUGGAAGUUUGGACUGGGCAGAGCUCAACACAGCGUGGCAAAGUGGCUGUGGCUAGACUGCCUCUCUGGAUUCCUCGUCACUCAGCAGGGCAUUUCUGAGAGAAAUGCC [U15C C131U]",
    "self-cleavage": 2.51
  },
  {
    "seq-text": "UACGUAGGUGGUUUUCCCCUGAAAGUGCUACGGGGGCCUGGAAGUUUGGACUGGGCAGAGCUCAACACAGCGUGGCAAAGUGGCUGUGGCUAGACUGCCUCUCUGGAUUCCUCGUCACUCAGCAGGGCAUCUCUGAGAGAAAUGCC [U23A A31C]",
    "self-cleavage": 1.31
  },
  {
    "seq-text": "UACGUAGGUGGUUUACCCCUGAUAGUGCUAAGGGGGCCUGGAAGUUUGGACUGGGCAGAGCUCAACACAGCGUGGCAAAGUGGUUGUGGCUAGACUGCCUCUCUGGAUUCCUCGUCACUCAGCAGGGCAUCUCUGAGAGAAAUGCC [U15A C84U]",
    "self-cleavage": 0.08
  },
  {
    "seq-text": "UACGUAGAUGGUUUUCCCCUGAUAGUGCUAAGGGGGCCUGGAAGUUUGGACUGGGCAGAGCUCAACACAGCGUGGCAAAGUGGCUGCGGCUAGACUGCCUCUCUGGAUUCCUCGUCACUCAGCAGGGCAUCUCUGAGAGAAAUGCC [G8A U87C]",
    "self-cleavage": 0.19
  },
  {
    "seq-text": "UACGUAGGCGGUUUUCCCCUGAUAGUGCUAAGGGGGCCUGGAAGUUUGGACUGGACAGAGCUCAACACAGCGUGGCAAAGUGGCUGUGGCUAGACUGCCUCUCUGGAUUCCUCGUCACUCAGCAGGGCAUCUCUGAGAGAAAUGCC [U9C G55A]",
    "self-cleavage": 0.48
  },
  {
    "seq-text": "UACGUAGGUGGUUUUCCCCUGACAGUGCUAAGGGGGCCUGGAAGUUUGGACUGGGCAGAGCUCAACACUGCGUGGCAAAGUGGCUGUGGCUAGACUGCCUCUCUGGAUUCCUCGUCACUCAGCAGGGCAUCUCUGAGAGAAAUGCC [U23C A69U]",
    "self-cleavage": 0.02
  },
  {
    "seq-text": "UACGUAGGUGGUUUUCCCCUGAUAGUGCUAAGGGGGCCUGGUAGUUUGGACUGGGCAGAGCUCAACACAGCGUGGCAAAGUGGUUGUGGCUAGACUGCCUCUCUGGAUUCCUCGUCACUCAGCAGGGCAUCUCUGAGAGAAAUGCC [A42U C84U]",
    "self-cleavage": 0.09
  },
  {
    "seq-text": "UACGCAGGUGGUAUUCCCCUGAUAGUGCUAAGGGGGCCUGGAAGUUUGGACUGGGCAGAGCUCAACACAGCGUGGCAAAGUGGCUGUGGCUAGACUGCCUCUCUGGAUUCCUCGUCACUCAGCAGGGCAUCUCUGAGAGAAAUGCC [U5C U13A]",
    "self-cleavage": 1.67
  },
  {
    "seq-text": "UACGUAGGUGGUUUUCCACUGAUAGUGCUAAGGGGGCCUGGAAGUUUGGACUGGGCAGAGCUCAACACAGCGUGGCAAAGUGGCUGUGGCUAGACUGCCUCUCUGGAUUCCUCGUCACUCAGCAGGGCAUCACUGAGAGAAAUGCC [C18A U132A]",
    "self-cleavage": 1.38
  },
  {
    "seq-text": "GACGUAGGUGGUUUUCCCCUGAUAGUGCUAAGGGGGCCUGGAAGUUUGGACUGGGCAGAGCUCGACACAGCGUGGCAAAGUGGCUGUGGCUAGACUGCCUCUCUGGAUUCCUCGUCACUCAGCAGGGCAUCUCUGAGAGAAAUGCC [U1G A64G]",
    "self-cleavage": 0.46
  },
  {
    "seq-text": "UACGUAGGUGGUAUUCCCCUGAUAGUGCUAAGGGGGCCUGGAAGUUUGGACUGGGCAGAGCUCAACACAGCGUGGCAAAGUGGCUGUGGCUAGACUGCCUCUCUGGAUUCCUCGUCACUCAGCAGGGCAUCUUUGAGAGAAAUGCC [U13A C133U]",
    "self-cleavage": 0.67
  },
  {
    "seq-text": "UACGUAGGUGGUUUUCCCCUGAUAGUGCUAAGGGGGCCUGGAAGUUUGGACUGGGCAGAGCCCAACACUGCGUGGCAAAGUGGCUGUGGCUAGACUGCCUCUCUGGAUUCCUCGUCACUCAGCAGGGCAUCUCUGAGAGAAAUGCC [U62C A69U]",
    "self-cleavage": 0.03
  },
  {
    "seq-text": "UACGUAGGUGGUUUUCCCCUGAUAGUGCUAAGGGGGCCUGGAAGUUUGGACUGGGCAGAGCUCAACACUGCGUGGCAAAGUGGCUGUGGCUAGACUGCCUCUCUGGAUUCCUCGUCACUCAGCAGGGCAUCUCUGAGAGAUAUGCC [A69U A141U]",
    "self-cleavage": 0.05
  },
  {
    "seq-text": "UACGUAGGCGGUUUUCCCCUGAUAGUGCUAAGGGGGCCUGGAAGUUUGGACUGGGCAGAGCUCAACACAGCGUGGCAACGUGGCUGUGGCUAGACUGCCUCUCUGGAUUCCUCGUCACUCAGCAGGGCAUCUCUGAGAGAAAUGCC [U9C A79C]",
    "self-cleavage": 1.2
  },
  {
    "seq-text": "UACGUAGGUGGUUUUCCCCUGAUAGUGCUAAGGAGGCCUGGAAGUUUGGACUGGGCAGAGCUCAACACAGCGUGGCAAAGUGGCUGUGGCUAGACUGCCUCUCUGGAUUCCUCGCCACUCAGCAGGGCAUCUCUGAGAGAAAUGCC [G34A U115C]",
    "self-cleavage": 2.03
  },
  {
    "seq-text": "UACGUAGGUGGUUUUCCCCUGAUAGUGCUAAGGGGGCCCGGAAGUUUGGACUGGGCAGAGCUCAACACAGCGUGGCAAAGUGGCUGUGGCUAGACUGCCUCUCUGGAUUCCUCGUCACUCUGCAGGGCAUCUCUGAGAGAAAUGCC [U39C A121U]",
    "self-cleavage": 1.04
  },
  {
    "seq-text": "UACGUAGGUGGUUUUCCCCUGAUAGUGCUAAGGGGGCCUGGAAGUUUGGACUGGGCAGAGCUCAACACAGCGUGGCAAACUGGCUUUGGCUAGACUGCCUCUCUGGAUUCCUCGUCACUCAGCAGGGCAUCUCUGAGAGAAAUGCC [G80C G86U]",
    "self-cleavage": 0.04
  },
  {
    "seq-text": "UACGUAGGUGGUUUUCCCCUGAUAGUGCUAAGGGGGCCUGGAAGUUUGGACUGGGCAGAGCUCAGCACAGCGUGGCAAAGUGGCUGUGGCAAGACUGCCUCUCUGGAUUCCUCGUCACUCAGCAGGGCAUCUCUGAGAGAAAUGCC [A65G U91A]",
    "self-cleavage": 0.02
  },
  {
    "seq-text": "UACGUAGGUGGUUUUCCCCUGAUAGUGCUAAGGGGGCCUGGAAGUUUGGACUGGGCAGAGCUCAACUCAGCGUGGCAAAGUGGCUGUGGCUAGACUGCCUCUCUGGAUUCCUCGUCACUCAGCAGGGCAUCUCUGCGAGAAAUGCC [A67U A136C]",
    "self-cleavage": 0.03
  },
  {
    "seq-text": "UACGUAGGUGGUUUUCCCCUGAUAGUGCUAAGGGGGCCUGGAAGCUUGGACUGGGCAGAGCUCAAAACAGCGUGGCAAAGUGGCUGUGGCUAGACUGCCUCUCUGGAUUCCUCGUCACUCAGCAGGGCAUCUCUGAGAGAAAUGCC [U45C C66A]",
    "self-cleavage": 0.19
  }
]
